Reference for the values: patent US20070020327A1

# Experimental Target: HLA-A*0203 (human)
# Assay Info: inhibition of 125I-labelled probe peptide binding to purified HLA; gel filtration
Below, each entry is listed alongside its reported pIC50.
# log scale: pIC50 equals minus log10 of the concentration in mol/L

Binder: TVSGLQMAV (modifications not checked) [peptide 60.0213 (PAP.292.V9)]
Val: 6.91

Now examine the next entry.
Reported pIC50 for LLWQPIPVHV (modifications not checked) [peptide 1419.69 (PAP.136.V10)] was 7.77
